target: Beta-3 adrenergic receptor (Homo sapiens); assay: DRUGMATRIX: Adrenergic beta3 radioligand binding (ligand: [125I] Cyanopindolol); assay type: cell membranes, HEK293, Membrane; details: hek293; Not Active = under 50% inhibition at 10 µM
Sequence (P13945 whole entry): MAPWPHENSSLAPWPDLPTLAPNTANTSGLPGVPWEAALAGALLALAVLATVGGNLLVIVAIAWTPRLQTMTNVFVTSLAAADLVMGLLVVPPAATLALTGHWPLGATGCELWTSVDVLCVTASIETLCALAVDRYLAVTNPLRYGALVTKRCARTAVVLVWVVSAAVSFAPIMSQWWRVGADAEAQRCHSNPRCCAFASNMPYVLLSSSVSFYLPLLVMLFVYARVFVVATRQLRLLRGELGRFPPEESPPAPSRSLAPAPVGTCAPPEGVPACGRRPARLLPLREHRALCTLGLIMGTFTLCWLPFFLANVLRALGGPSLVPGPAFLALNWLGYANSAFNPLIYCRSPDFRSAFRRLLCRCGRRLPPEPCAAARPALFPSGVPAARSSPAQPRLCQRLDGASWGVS

Compound	IC50
COc1cc(/C=C/C(=O)O)ccc1O [FERULATE]	Not Active
Nc1ccc(C(=O)O)c(O)c1	Not Active
C=CCO	Not Active
ClC1=C(Cl)[C@]2(Cl)[C@@H]3[C@@H]4C[C@@H]([C@H]5O[C@@H]45)[C@@H]3[C@@]1(Cl)C2(Cl)Cl	Not Active
Nc1nc(N)c2nc(-c3ccccc3)c(N)nc2n1	Not Active
C=CCc1ccc2c(c1)OCO2	Not Active
CCN(CC)CCNC(=O)c1cc(Cl)c(N)cc1OC [METOCLOPRAMIDE]	Not Active
OC[C@H]1O[C@@H]2O[C@H]3[C@H](O)[C@@H](O)[C@@H](O[C@H]4[C@H](O)[C@@H](O)[C@@H](O[C@H]5[C@H](O)[C@@H](O)[C@@H](O[C@H]6[C@H](O)[C@@H](O)[C@@H](O[C@H]7[C@H](O)[C@@H](O)[C@@H](O[C@H]8[C@H](O)[C@@H](O)[C@@H](O[C@H]1[C@H](O)[C@H]2O)O[C@@H]8CO)O[C@@H]7CO)O[C@@H]6CO)O[C@@H]5CO)O[C@@H]4CO)O[C@@H]3CO	Not Active
NC(N)=Nc1nc(CSCCC(N)=NS(N)(=O)=O)cs1	Not Active
c1ccc2sc(SSc3nc4ccccc4s3)nc2c1 [BENZOTHIAZYL DISULFIDE]	Not Active
COc1ccc(C[C@H](N)C(=O)N[C@H]2[C@@H](O)[C@H](n3cnc4c(N(C)C)ncnc43)O[C@@H]2CO)cc1	Not Active
C[C@H]1C[C@H]2[C@@H]3CCC4=CC(=O)C=C[C@]4(C)[C@@]3(F)[C@@H](O)C[C@]2(C)[C@@]1(O)C(=O)CO	Not Active
CC12CCC(CC1)C(C)(C)O2	Not Active
CC[C@H](C)[C@@H](CO[C@@H](Cc1ccccc1)C(=O)N[C@@H](CCS(C)(=O)=O)C(=O)OC(C)C)NC[C@@H](N)CS	Not Active
Cc1ccc(S(=O)(=O)NC(=O)NN2CCCCCC2)cc1 [TOLAZAMIDE]	Not Active
Cc1cn([C@H]2C=C[C@@H](CO)O2)c(=O)[nH]c1=O	Not Active

###

Quick record of Ki values for Kappa-type opioid receptor (Homo sapiens, UniProt P41145).

Compound	Tgt	Unit	Ki
c1ccc2sc(SSc3nc4ccccc4s3)nc2c1 [BENZOTHIAZYL DISULFIDE]	Kappa-type opioid receptor (Homo sapiens, UniProt P41145)	µM	0.497
CCN(CC)C(=S)SSC(=S)N(CC)CC	Kappa-type opioid receptor (Homo sapiens, UniProt P41145)	µM	2.44
Clc1cc(Cl)c(OCC#CI)cc1Cl	Kappa-type opioid receptor (Homo sapiens, UniProt P41145)	µM	0.459
CC#C[C@]1(O)CC[C@H]2[C@@H]3CCC4=CC(=O)CCC4=C3[C@@H](c3ccc(N(C)C)cc3)C[C@@]21C	Kappa-type opioid receptor (Homo sapiens, UniProt P41145)	µM	8.04

###

biological target: Aldo-keto reductase family 1 member B1 (Rattus norvegicus); assay: biochemical; assay type: tissue-based, Lens of camera-type eye; note: in other assays of this panel Not Active means under 50% inhibition at 10 µM;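 note: inhibition of aldose reductase enzyme activity, measured with DL-glyceraldehyde as the substrate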
Reported Endpoint: IC50

Substance	Result
POVIDONE	Not Active
COPPER(II) OXIDE	Not Active
CARBOXYMETHYLCELLULOSE	Not Active
CHROMIC CHLORIDE	Not Active
LEAD(IV) ACETATE	Not Active

###

molecular target: Acetylcholinesterase (Homo sapiens, UniProt P22303); experiment: DRUGMATRIX: Acetylcholinesterase enzyme inhibition (substrate: acetylthiocholine); type: cell-based, HEK293; conditions: Not Active = under 50% inhibition at 10 µM; read-out: IC50
Sequence (P22303 whole entry): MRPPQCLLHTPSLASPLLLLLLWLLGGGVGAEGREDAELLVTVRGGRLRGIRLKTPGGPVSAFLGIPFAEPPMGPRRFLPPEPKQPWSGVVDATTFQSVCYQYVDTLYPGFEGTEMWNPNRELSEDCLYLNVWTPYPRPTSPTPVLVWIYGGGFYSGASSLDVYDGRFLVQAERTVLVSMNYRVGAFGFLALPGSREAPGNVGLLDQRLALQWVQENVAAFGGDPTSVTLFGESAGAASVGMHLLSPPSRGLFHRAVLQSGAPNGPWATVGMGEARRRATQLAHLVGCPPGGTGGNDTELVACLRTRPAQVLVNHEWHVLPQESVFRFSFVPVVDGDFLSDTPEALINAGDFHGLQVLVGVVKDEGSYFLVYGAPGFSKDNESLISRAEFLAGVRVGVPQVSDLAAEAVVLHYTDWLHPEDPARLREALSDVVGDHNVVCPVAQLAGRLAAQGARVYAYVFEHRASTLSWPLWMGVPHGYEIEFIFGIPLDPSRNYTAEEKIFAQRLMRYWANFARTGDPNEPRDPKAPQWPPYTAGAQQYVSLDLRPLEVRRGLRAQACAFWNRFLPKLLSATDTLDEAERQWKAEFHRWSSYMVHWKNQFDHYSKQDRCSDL
pIC50: −log10 of the molar value.
# pIC50 values compiled below

Compound	Tgt	pIC50
CC1(COc2ccc(CC3SC(=O)NC3=O)cc2)CCCCC1 (configuration not stated)	Acetylcholinesterase (Homo sapiens, UniProt P22303)	4.82
CN1C[C@H](CNC(=O)OCc2ccccc2)C[C@@H]2c3cccc4c3c(cn4C)C[C@H]21	Acetylcholinesterase (Homo sapiens, UniProt P22303)	5.87

###

assay: DRUGMATRIX: Interleukin IL-1 radioligand binding (ligand: [125I] interleukin 1beta); assay type: cell membranes, Membrane; conditions: nih3t3; Not Active = under 50% inhibition at 10 µM

Smi	IC50
COc1ccc(C[C@H](N)C(=O)N[C@H]2[C@@H](O)[C@H](n3cnc4c(N(C)C)ncnc43)O[C@@H]2CO)cc1	Not Active
C=CCN1CC[C@]23c4c5ccc(O)c4O[C@H]2/C(=N/N=C2\CC[C@@]4(O)[C@H]6Cc7ccc(O)c8c7[C@@]4(CCN6CC=C)[C@H]2O8)CC[C@@]3(O)[C@H]1C5	Not Active
Nc1nc(N)c2nc(CNc3ccc(C(=O)N[C@@H](CCC(=O)O)C(=O)O)cc3)cnc2n1	Not Active

###

biological target: Melanocortin receptor 5 (Homo sapiens, UniProt P33032); type: cell membranes, HEK293, Membrane; conditions: read-out: Ki; note: in other assays of this panel Not Active means under 50% inhibition at 10 µM
Sequence (P33032 whole entry): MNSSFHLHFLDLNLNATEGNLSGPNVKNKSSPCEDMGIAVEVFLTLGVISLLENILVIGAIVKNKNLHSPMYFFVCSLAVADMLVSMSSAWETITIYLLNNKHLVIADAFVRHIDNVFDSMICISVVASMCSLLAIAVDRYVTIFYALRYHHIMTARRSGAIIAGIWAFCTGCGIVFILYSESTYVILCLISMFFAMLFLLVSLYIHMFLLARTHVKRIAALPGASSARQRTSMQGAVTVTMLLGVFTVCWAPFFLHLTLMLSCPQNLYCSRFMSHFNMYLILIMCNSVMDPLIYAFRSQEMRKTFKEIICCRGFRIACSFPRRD
pKi: −log10 of the molar value.
Reported Endpoint: pKi

Molecule	Quantitative Readout
CC[C@H](C)[C@@H](CO[C@@H](Cc1ccccc1)C(=O)N[C@@H](CCS(C)(=O)=O)C(=O)OC(C)C)NC[C@@H](N)CS	6.94
CC1(COc2ccc(CC3SC(=O)NC3=O)cc2)CCCCC1 (stereo not drawn)	4.57
c1ccc2sc(SSc3nc4ccccc4s3)nc2c1 [BENZOTHIAZYL DISULFIDE]	5.43

###

target: Voltage-gated inwardly rectifying potassium channel KCNH2 (Homo sapiens, UniProt Q12809); settings: hek293; note: in other assays of this panel Not Active means under 50% inhibition at 10 µM
Sequence (Q12809 whole entry): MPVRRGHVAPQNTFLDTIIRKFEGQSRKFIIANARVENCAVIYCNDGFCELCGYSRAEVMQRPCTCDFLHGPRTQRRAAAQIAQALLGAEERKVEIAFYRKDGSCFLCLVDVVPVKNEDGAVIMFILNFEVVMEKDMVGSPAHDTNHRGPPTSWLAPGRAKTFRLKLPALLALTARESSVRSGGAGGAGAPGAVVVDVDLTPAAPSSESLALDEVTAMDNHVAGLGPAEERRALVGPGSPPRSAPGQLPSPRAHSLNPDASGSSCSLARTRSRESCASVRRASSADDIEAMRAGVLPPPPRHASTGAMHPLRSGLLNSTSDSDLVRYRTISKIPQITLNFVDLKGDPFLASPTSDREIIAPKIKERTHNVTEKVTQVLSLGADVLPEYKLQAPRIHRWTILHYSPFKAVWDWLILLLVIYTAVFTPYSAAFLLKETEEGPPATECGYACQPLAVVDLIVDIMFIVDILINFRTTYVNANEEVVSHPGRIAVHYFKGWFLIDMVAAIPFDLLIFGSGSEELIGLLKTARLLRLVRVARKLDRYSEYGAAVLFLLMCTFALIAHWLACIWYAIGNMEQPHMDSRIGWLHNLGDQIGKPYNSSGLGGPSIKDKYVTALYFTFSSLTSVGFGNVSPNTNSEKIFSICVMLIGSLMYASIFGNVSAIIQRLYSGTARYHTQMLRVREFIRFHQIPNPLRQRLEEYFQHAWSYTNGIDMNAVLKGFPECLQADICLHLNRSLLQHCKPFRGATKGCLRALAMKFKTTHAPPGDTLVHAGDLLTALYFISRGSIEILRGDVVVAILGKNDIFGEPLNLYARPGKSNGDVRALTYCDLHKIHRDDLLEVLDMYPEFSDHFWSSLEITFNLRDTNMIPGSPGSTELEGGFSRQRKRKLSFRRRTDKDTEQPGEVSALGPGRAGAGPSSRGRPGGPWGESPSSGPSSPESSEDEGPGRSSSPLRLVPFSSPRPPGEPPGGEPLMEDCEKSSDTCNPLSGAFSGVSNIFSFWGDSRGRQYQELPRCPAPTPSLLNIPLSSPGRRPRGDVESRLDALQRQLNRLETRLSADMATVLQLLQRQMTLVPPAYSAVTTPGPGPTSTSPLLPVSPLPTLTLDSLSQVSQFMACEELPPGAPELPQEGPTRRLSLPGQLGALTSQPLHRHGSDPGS

Compound	Ki
CC(C)(c1ccc(O)cc1)c1ccc(O)cc1 [BISPHENOL A]	Not Active
O=C(Nc1ccc(Cl)c(Cl)c1)c1cc(Cl)cc(Cl)c1O [3,3',4',5-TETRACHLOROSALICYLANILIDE]	Not Active
CC(CN1c2ccccc2Sc2ccccc21)N(C)C (stereo unspecified) [PROMETHAZINE]	Not Active
C=C(Cl)Cl [1,1-DICHLOROETHENE]	Not Active
Cc1cccc(C)c1NC(=O)C(C)N (stereo unspecified) [TOCAINIDE]	Not Active
CC(=O)O[C@]1(C(C)=O)CC[C@H]2[C@@H]3C[C@H](C)C4=CC(=O)CC[C@]4(C)[C@H]3CC[C@@]21C [MEDROXYPROGESTERONE ACETATE]	Not Active
O=C(O)CCc1nc(-c2ccccc2)c(-c2ccccc2)o1 [OXAPROZIN]	Not Active
CC12CCC(CC1)C(C)(C)O2 [EUCALYPTOL]	Not Active
ClC1=C(Cl)[C@]2(Cl)[C@@H]3[C@@H]4C[C@@H]([C@H]5O[C@@H]45)[C@@H]3[C@@]1(Cl)C2(Cl)Cl [DIELDRIN]	Not Active
c1ccc2sc(SSc3nc4ccccc4s3)nc2c1 [BENZOTHIAZYL DISULFIDE]	Not Active
CCN(CC)N=O [N-NITROSODIETHYLAMINE]	Not Active
C1CCN2C[C@@H]3C[C@@H](CN4CCCC[C@@H]34)[C@H]2C1 [SPARTEINE]	Not Active
CC(N)Cc1c[nH]c2ccc(OCc3cccs3)cc12 (stereo unspecified) [BW-723C86]	Not Active
C[C@]12CCC(=O)C[C@@H]1CC[C@@H]1[C@@H]2CC[C@]2(C)[C@@H](O)CC[C@@H]12 [STANOLONE]	Not Active
CN1C(=O)OC(C)(C)C1=O [TRIMETHADIONE]	Not Active
Oc1ccc(/C=C/c2cc(O)cc(O)c2)cc1 [RESVERATROL]	Not Active

###

Target: C-X-C chemokine receptor type 2 (Homo sapiens); note: in other assays of this panel Not Active means under 50% inhibition at 10 µM
Sequence (P25025 whole entry): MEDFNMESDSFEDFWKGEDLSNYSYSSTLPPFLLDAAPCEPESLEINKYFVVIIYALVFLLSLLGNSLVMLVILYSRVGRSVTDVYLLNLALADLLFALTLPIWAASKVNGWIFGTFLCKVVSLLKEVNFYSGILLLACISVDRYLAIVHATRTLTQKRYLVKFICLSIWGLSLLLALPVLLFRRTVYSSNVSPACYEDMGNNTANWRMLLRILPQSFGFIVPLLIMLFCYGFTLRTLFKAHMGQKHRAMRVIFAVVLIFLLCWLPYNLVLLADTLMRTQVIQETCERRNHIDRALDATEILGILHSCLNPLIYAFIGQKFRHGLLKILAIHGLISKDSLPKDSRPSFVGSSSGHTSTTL
Format: cell membranes, CHO-K1, Membrane
Conditions: read-out: Ki
pKi: −log10 of the molar value.

Smi	pKi
CCN(CC)C(=S)SSC(=S)N(CC)CC	5.38
